Listing of entries alongside the reported cytotoxicity at 10 µM.
Test: Toxicity liver stage against HepG2, at 10uM
Assay type: cell-based
Set-up: test concentration 10 uM, cell line HepG2-A16-CD81EGFP
Conditions: human, HepG2-A16-CD81EGFP cells; read-out: INHIBITION
Hi! Could you send only the number? It should be in %, unit omitted.

Sample answers from the record:
compound=Cc1nc2n(n1)CCN(S(=O)(=O)c1ccc(OC(F)(F)F)cc1)C2 readout_label="cytotoxicity at 10 µM" reported_measurement=-5.86
compound=CN1CC=C(c2noc(CCC(=O)N3CCOCC3)n2)CC1 readout_label="cytotoxicity at 10 µM" reported_measurement=-0.687
compound=CNC(=O)[C@H]1C[C@H]2OCC[C@H]2N(CC2CC2)C1 readout_label="cytotoxicity at 10 µM" reported_measurement=4.17

Consider `CCN(C)C(=O)CN1CCC(c2cc(N3CCOCC3)nc(C)n2)CC1` . Its measured cytotoxicity at 10 µM is -2.02

cytotoxicity at 10 µM measured on CC1(c2ccc(Br)cc2)CC(=O)N(CCC(N)=O)C1=O (stereo not drawn) = -3.74

Entry `COCCN1C[C@H]2CN(C(=O)c3ccc4c(c3)OCO4)CCN2C1=O` , cytotoxicity at 10 µM reported as 13.7

Entry `CC(C)(C)c1ncc(C(=O)N2CCN(C(=O)c3ccc[nH]3)CC2)c(O)n1` — recorded cytotoxicity at 10 µM = -6.74

Sample CN1CCCC(c2nnc3n2CCN(S(=O)(=O)c2ccccc2Cl)C3)C1 (stereo not drawn) ; cytotoxicity at 10 µM observed: -2.92

# cytotoxicity at 10 µM of `COCc1ccc(C(=O)N2CCCN(c3ccc(F)cc3)CC2)s1` = -8.92

According to the records, this compound Cc1nc(NC(=O)N2CCCC(N(C)C)C2)nn1C (stereo not drawn) displays cytotoxicity at 10 µM of -9.4

Entry under test: `O=C(c1cc(C2CC2)[nH]n1)N1CCCN(c2nccs2)CC1` . Its cytotoxicity at 10 µM was 6.37

Reported cytotoxicity at 10 µM ( CNC(=O)NC1CC2(CCNCC2)c2ccc(C)cc21 (stereo not drawn) ) = -4.97
